Test system: Inhibin beta A chain (activin A)
Test: small molecules binding activin A – biochemical, small-molecule microarray, 635 nm fluorescence scan, primary screen (AID 1107);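 note: mouse activin A protein probed at 4.33 µg/mL on printed slides; score merges bound-protein fluorescence near 667 nm with spot signal-to-noise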
Settings: INHBA, higher = more signal

MOLECULE: COc1ccc(C(=O)Nc2ccc3c(c2)[C@]2(O[C@@H](CCO)[C@H]([Si](C)(C)c4ccc(OC)cc4)[C@H]2C)C(=O)N3Cc2ccccc2)cc1
MEASURED ON: Inhibin beta A chain (activin A)
composite z-score: 1.11
//
MOLECULE: COCCOC(=O)N1C(=O)[C@@]2(c3cc(C#Cc4ccc(OC)cc4)ccc31)[C@H](c1ccc(OCCO)cc1)N1[C@H](c3ccccc3)[C@H](c3ccccc3)OC(=O)[C@H]1[C@@H]2C(N)=O
MEASURED ON: Inhibin beta A chain (activin A)
composite z-score: 0.48
//
MOLECULE: CCCCC(CC)C(O)C1C=CC2C(=O)NC(=O)C2N1Nc1ccccn1 (centres undefined)
MEASURED ON: Inhibin beta A chain (activin A)
composite z-score: 1.33
//
MOLECULE: CC1CC/C=C\[C@H]2OC34C=CCN(Cc5ccccc5)C(=O)[C@H]3N(CCO)C(=O)[C@@H]4C2C(=O)O1 (some centres undefined)
MEASURED ON: Inhibin beta A chain (activin A)
composite z-score: 1.23

====

Each entry below carries its reported composite z-score.
Assay: small molecules captured by biotinylated probe aFGF10 – biochemical, small-molecule microarray, fluorescence 635/667, stem cell growth factor project, primary screen (AID 1071);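 note: score merges 667 nm spot intensity and signal to noise from triplicate slides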
Details: higher = more signal

COMPOUND: CN1C(=O)C2C=CC(C(O)C3CCCCC3)N(N(c3ccccc3)c3ccccc3)C2C1=O (stereo unspecified)
composite z-score: -0.122
//
COMPOUND: COC(=O)C(CC#Cc1ccc2c(c1)[C@]1(C(=O)N2)[C@H](c2ccc(O)cc2)N2[C@H](c3ccccc3)[C@H](c3ccccc3)OC(=O)[C@H]2[C@@H]1C(N)=O)C(=O)OC
composite z-score: -1.89
//
COMPOUND: COCCOC(=O)N1C(=O)[C@@]2(c3cc(C#CCCO)ccc31)[C@H](C(=O)NC[C@H](O)c1ccccc1)[C@H]1C(=O)O[C@H](c3ccccc3)[C@H](c3ccccc3)N1[C@@H]2c1ccccc1OCCO
composite z-score: 0.486
//
COMPOUND: [N-]=[N+]=Nc1ccccc1C[C@]1(C(=O)NCCN2CCOCC2)N=C(c2ccc(OCCCO)cc2)O[C@H]1c1ccccc1N=[N+]=[N-]
composite z-score: 0.763
//
COMPOUND: CC(C)CCC[C@@H](C)[C@H]1CC[C@@]2(C)C3=C(CC[C@]12C)[C@@]1(C)CC[C@H](OC(=O)c2ccc(N)cc2)C(C)(C)C1CC3 (stereo partly specified)
composite z-score: 0.448
//
COMPOUND: COC(=O)c1ccc(OC)c(/C=C\CC(CCc2ccccc2)OC(=O)c2ccncc2)c1 (stereo unspecified)
composite z-score: -0.293

====

System: Sam68 (KHDRBS1)
Test: compounds binding KHDRBS1 protein – biochemical, small-molecule microarray, 635 nm fluorescence, primary screen (AID 1125);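 note: score merges 667 nm channel intensity with signal to noise over triplicate slides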
Settings: higher = more signal

COMPOUND: NC(=O)NCC#Cc1ccc2c(c1)[C@]1(C(=O)N2)[C@H](c2ccc(OCCO)cc2)N2[C@H](c3ccccc3)[C@H](c3ccccc3)OC(=O)[C@H]2[C@@H]1C(=O)N1CCCCCCC1
composite z-score: 1.23
//
COMPOUND: CN1C(=O)C2C=CC(C(O)c3cccc4ccccc34)N(NC(=O)OC(C)(C)C)C2C1=O (configuration not stated)
composite z-score: 1.3
//
COMPOUND: O=C(N1CCOCC1)[C@@]1(CCS(=O)(=O)c2ccccc2)COC(c2ccc(OCCCO)cc2)=N1
composite z-score: 0.605
//
COMPOUND: COCCOC(=O)N1C(=O)[C@@]2(c3cc(C#Cc4ccc(OC)cc4)ccc31)[C@H](C(=O)N1CCc3cc(OC)c(OC)cc3C1)[C@H]1C(=O)O[C@H](c3ccccc3)[C@H](c3ccccc3)N1[C@@H]2c1ccc(OCCO)cc1
composite z-score: 1.23
//
COMPOUND: CCCNC(=O)[C@@]1(Sc2ccc(C)cc2)CC(=O)N(Cc2ccccc2)[C@@H]1c1ccc(CO)cc1I
composite z-score: 0.827
//
COMPOUND: COCCOC(=O)N1C(=O)[C@@]2(c3ccccc31)[C@H](c1ccccc1OCCO)N1[C@H](c3ccccc3)[C@H](c3ccccc3)OC(=O)[C@H]1[C@@H]2C(=O)N1CCc2cc(OC)c(OC)cc2C1
composite z-score: 1.27
//
COMPOUND: [N-]=[N+]=NCc1ccccc1C[C@]1(C(=O)NCCN2CCOCC2)N=C(c2ccc(OCCCO)cc2)O[C@H]1c1ccccc1
composite z-score: 1.3
